Data origin: patent US20050070692A1

Biological target: human IL-1β (human, UniProt P01584 117-269)
Experiment: cell-based or functional assay
Each entry below carries its recorded IC50, inhibition of human IL-1β stimulated proliferation.
Measurement Kind: IC50, inhibition of human IL-1β stimulated proliferation (Picomolar)

INSERT INTO results (binder, measure_unit, value_measured) VALUES
  ('Hu007 analog N55Q (antibody, human IgG1, kappa, V domains shown, IgG1; Heavy chain of Hu007 with N55Q, co-transfected with the WT Hu007 light chain) VH: QVQLVQSGAEVKKPGASVKVSCKVSGYTFSRYWIEWVRQAPGKGLEWIGEILPGQGNINYNEKFKGKATITADTSTDTAYMELSSLRSEDTAVYYCSTIYYDYDQGFTYWGQGTLVTVSS VL: DIQMTQSPSSLSASVGDRVTITCKASQDIDRYLSWFQQKPGKAPKSLIYRVKRLVDGVPSRFSGSASGTDYTLTISSLQPEDFATYYCLQYDEFPYTFGQGTKLEIKR', 'Picomolar', 2500),
  ('Hu007 analog N55S (antibody, human IgG1, kappa, V domains shown, IgG1; also called heavy chain CDR2, N55S) VH: QVQLVQSGAEVKKPGASVKVSCKVSGYTFSRYWIEWVRQAPGKGLEWIGEILPGSGNINYNEKFKGKATITADTSTDTAYMELSSLRSEDTAVYYCSTIYYDYDQGFTYWGQGTLVTVSS VL: DIQMTQSPSSLSASVGDRVTITCKASQDIDRYLSWFQQKPGKAPKSLIYRVKRLVDGVPSRFSGSASGTDYTLTISSLQPEDFATYYCLQYDEFPYTFGQGTKLEIKR', 'Picomolar', 184),
  ('Hu007 analog G56V (antibody, human IgG1, kappa, V domains shown, IgG1; Heavy chain of Hu007 with G56V, co-transfected with the WT Hu007 light chain) VH: QVQLVQSGAEVKKPGASVKVSCKVSGYTFSRYWIEWVRQAPGKGLEWIGEILPGNVNINYNEKFKGKATITADTSTDTAYMELSSLRSEDTAVYYCSTIYYDYDQGFTYWGQGTLVTVSS VL: DIQMTQSPSSLSASVGDRVTITCKASQDIDRYLSWFQQKPGKAPKSLIYRVKRLVDGVPSRFSGSASGTDYTLTISSLQPEDFATYYCLQYDEFPYTFGQGTKLEIKR', 'Picomolar', 395);
